Test system: SK-MEL-2 melanoma
Assay: NCI tumour cell line growth inhibition, 48 h
property: TGI

Reference set, count: 10
{"columns": ["compound", "TGI"],
 "data": [
  ["CCOC(=O)C1=C(O)C(=O)c2ccoc2C1=O", "> 100 µM"],
  ["CCCCSc1nc(N)c2cn[nH]c2n1", "> 64.6 µM"],
  ["CC(C)(C)n1c(=O)n(-c2ccccc2)n(C(C)(C)C)c1=O", "> 100 µM"],
  ["CC(C)(C)C1=CC(=C2C=Cc3cc(O)ccc3O2)C=C(C(C)(C)C)C1=O", "3.09 µM"],
  ["O=C(O)/C(Cl)=C(Cl)/C=N/NC(=O)c1cc2ccccc2cc1O", "79.3 µM"],
  ["Cc1cc(N(CCC#N)CCC#N)ccc1/C=C(\\NC(=O)/C=C/c1ccccc1)C(=O)Nc1ccc(Cl)cc1", "> 100 µM"],
  ["COC(=O)c1sc2c(c1C(=O)OC)C(=NC(C)(C)C)SC2=NC(C)(C)C", "33.1 µM"],
  ["Clc1cc(OCc2nn3c(Cc4ccccc4)nnc3s2)c(Cl)cc1OCc1nn2c(Cc3ccccc3)nnc2s1", "> 100 µM"],
  ["Nc1nc(Cl)c(N)c(NCC2(CO)CCC(CCc3ccccc3)C2)n1 (configuration not stated)", "31.7 µM"],
  ["C1=Nc2ccc(cc2)-c2ccc(cc2)N=Cc2ccc(cc2)OCc2cccc(n2)COc2ccc1cc2", "> 100 µM"]
]}

Next, consider the following compound.
Any idea what its TGI is? The compound is `Cn1c2c(c3ccccc3c1=O)C(=O)c1ccccc1-2`
> 100 µM
